- System under test: PD-1/PD-L1 (Homo sapiens (Human), UniProt Q9NZQ7)
- Sequence (Q9NZQ7 19-238): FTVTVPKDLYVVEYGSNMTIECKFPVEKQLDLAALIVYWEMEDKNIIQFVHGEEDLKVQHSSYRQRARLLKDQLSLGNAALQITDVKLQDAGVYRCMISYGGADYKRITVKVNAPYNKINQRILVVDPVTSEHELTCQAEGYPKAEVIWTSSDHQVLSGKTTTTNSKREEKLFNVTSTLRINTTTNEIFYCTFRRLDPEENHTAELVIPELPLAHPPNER
- Procedure text: PD-1/PD-L1 biochemical protein-protein interaction assay (ALPHA)
- Conditions: 0.3 nM His tagged PD-L1, 2.5 nM biotinylated Fc-PD-1, 60 minutes at 25° C., read-out: IC50 PD-L1-PD1
Recorded metric: pIC50
pIC50 is defined as minus the log10 of a concentration measured in mol/L.

Answered examples (6):
[
  {
    "Molecule": "COc1nc(-c2cccc(-c3cccc(-c4cnc(CNC[C@@H]5CCC(=O)N5)c(OC)n4)c3Cl)c2Cl)ccc1CN[C@@H]1COC[C@H]1O",
    "System under test": "PD-1/PD-L1 (Homo sapiens (Human), UniProt Q9NZQ7)",
    "pIC50": 9.73
  },
  {
    "Molecule": "COc1nc(-c2cc(F)cc(-c3cc(F)cc(-c4cnc(CNC[C@@H]5CCC(=O)N5)c(OC)n4)c3Cl)c2Cl)cnc1CNC[C@@H]1CCC(=O)N1",
    "System under test": "PD-1/PD-L1 (Homo sapiens (Human), UniProt Q9NZQ7)",
    "pIC50": 9.25
  },
  {
    "Molecule": "COc1nc(-c2cccc(-c3cccc(-c4cnc(CN5CCC(CO)(CO)C5)c(OC)n4)c3Cl)c2Cl)cnc1CN1CCC(CO)(CO)C1",
    "System under test": "PD-1/PD-L1 (Homo sapiens (Human), UniProt Q9NZQ7)",
    "pIC50": 10.19
  },
  {
    "Molecule": "COc1nc(-c2cccc(-c3cccc(-c4cnc(CN5CCC(O)(CC#N)C5)c(OC)n4)c3Cl)c2Cl)cnc1CNC[C@@H]1CCC(=O)N1 (stereo partly drawn)",
    "System under test": "PD-1/PD-L1 (Homo sapiens (Human), UniProt Q9NZQ7)",
    "pIC50": 9.73
  },
  {
    "Molecule": "COc1nc(-c2cccc(-c3cccc(-c4cnc(CNC5CCC([S+](C)[O-])C5)c(OC)n4)c3Cl)c2Cl)cnc1CNC[C@@H]1CCC(=O)N1 (stereo partly drawn)",
    "System under test": "PD-1/PD-L1 (Homo sapiens (Human), UniProt Q9NZQ7)",
    "pIC50": 9.54
  },
  {
    "Molecule": "COC1CN(Cc2ncc(-c3cccc(-c4cccc(-c5cnc(CN6CC(OC)C6)c(N(C)C)n5)c4Cl)c3Cl)nc2N(C)C)C1",
    "System under test": "PD-1/PD-L1 (Homo sapiens (Human), UniProt Q9NZQ7)",
    "pIC50": 9.15
  }
]

Which pIC50 reading was recorded for the molecule "COc1nc(-c2cccc(-c3cccc(-c4cnc(C5=NC[C@H](CO)N5)c(OC)n4)c3Cl)c2Cl)cnc1C1=NC[C@H](CO)N1" ?
10.19

Please do the same for "COc1nc(-c2cccc(-c3cccc(-c4cnc(CN[C@H]5CCOC5)c(OC)n4)c3Cl)c2Cl)cnc1CNC[C@@H]1CCC(=O)N1" as well.
9.88

Ok, now "COc1nc(-c2cccc(-c3cccc(-c4cnc(CNC[C@@H]5CCC(=O)N5)c(OC)n4)c3Cl)c2Cl)cnc1CNCc1cccn(C)c1=O"
9.61

Same question, "COc1nc(-c2cccc(-c3cccc(-c4cnc(CN[C@H]5CC[C@@H](CO)C5)c(OC)n4)c3Cl)c2Cl)cnc1CNC[C@@H]1CCC(=O)N1" this time
10.10

And "CNCc1ncc(-c2cccc(-c3cccc(-c4cnc(CN5CCC5)c(NC)n4)c3Cl)c2Cl)nc1NC" ?
9.43

Then what about the molecule "COc1nc(-c2cccc(-c3cccc(-c4cnc(CN5CC(C)(O)C5)c(OC)n4)c3Cl)c2Cl)cnc1CNC[C@@H]1CCC(=O)N1" ?
9.76
